- Method notes: Quantitative High-Throughput drug screen in 47 multiple myeloma cell lines against the NCATS MIPE library collection: KMS12BM_JCRB cell viability assay (AID 1918971); further: potency means the concentration at half of the fitted maximal effect; nearly all actives have a fitted effect of over 35% in size
- Condition info: KMS12BM myeloma viability, CellTiter-Glo ATP, 48 h; series mostly up to 45.8 µM
Inconclusive results are not listed. The source made the active and inactive calls. The call rests on the fitted dose curve; in most records, active means well fitted cell-killing curve with a large enough effect; inconclusive means small, poorly fitted or top-dose-only effect, or effect the other way; inactive means no such curve, though single readings can be large or run the other way.
# Potency listing for each entry below

Here's what some known entries look like.
- CCN1CCN(c2ccc(Nc3cc(N(C)C(=O)Nc4c(Cl)c(OC)cc(OC)c4Cl)ncn3)cc2)CC1: 16.6 µM (active)
- CCC(=O)N1CCN(c2ccc(-n3c(=O)ccc4cnc5ccc(-c6cnc7ccccc7c6)cc5c43)cc2C(F)(F)F)CC1: 0.0047 µM (active)
- CC(=O)NCCC(=O)N[C@@H](CCC(N)=O)C(=O)N[C@@H](CO)C(=O)N[C@@H](CCC(N)=O)C(=O)N[C@@H](CCC(N)=O)C(=O)N[C@H](C(=O)N[C@@H](Cc1ccccc1)C(=O)N[C@]1(C)CCCCCCC=CCCC[C@@](C)(C(=O)N[C@@H](CCC(N)=O)C(=O)N[C@@H](CC(N)=O)C(N)=O)NC(=O)[C@H](CC(C)C)NC(=O)[C@H](CC(C)C)NC(=O)[C@@H](CCCNC(=N)N)NC(=O)[C@H](Cc2c[nH]c3ccccc23)NC(=O)[C@H](CC(C)C)NC(=O)[C@H](CC(N)=O)NC1=O)[C@H](C)O: 9.35 µM (active)
- COc1c(C)c2c(c(O)c1CC=C(C)CCC(=O)O)C(=O)OC2: 3.32 µM (active)
- CC(C)(OCc1nn(Cc2ccccc2)c2ccccc12)C(=O)O: 0.418 µM (active)
- CC1(C)C(N(O)C(=O)Nc2ccc(Cl)cc2)N(c2ccc(Cl)cc2)C(=O)N1CC(=O)NN=CC=Cc1ccc([N+](=O)[O-])o1 (configuration not stated): 8.33 µM (active)

Please look at the following compound next.
Query: // query Potency value for entry CCCCc1ccc(NS(=O)(=O)c2ccc(C)c(C(=O)N3CCN(c4cccc(C)c4C)CC3)c2)cc1
Response: 20.9 µM (active)

---

- System: UISO
- Method notes: qHTS assay to identify novel small-molecules to repurpose for Merkel cell carcinoma treatment (AID 1296009); further: nearly all actives have a fitted effect of over 60% in size
- Condition info: MCC and control cell lines, CellTiter-Glo viability, 72 h; series mostly up to 46 µM
Records with an inconclusive call do not appear. The source made the active and inactive calls. Calls follow the shape of the dose curve; as a rule, active = well fitted inhibition curve with a large enough effect; inconclusive = small, poorly fitted or top-dose-only effect; inactive = flat fitted curve, though single readings scatter.
Please reply with one of these outcomes: T (active), F (inactive)

Some solved cases for reference:
* C[C@@H](NC(=O)c1ncnc(N)c1Cl)c1ncc(C(=O)Nc2cc(C(F)(F)F)c(Cl)cn2)s1 | F
* CS(=O)(=O)c1ccc(C2=C(c3ccccc3)C(=O)OC2)cc1 | F
* N=C1SC(=Cc2ccc(-c3ccc4c(c3)C(=O)NC4=O)o2)C(=O)N1c1ccc(Br)cc1 | F
* CC(C)CN(C[C@H](O)[C@H](Cc1ccccc1)NC(=O)O[C@H]1CCOC1)S(=O)(=O)c1ccc(N)cc1 | F
* Cc1cc(NC(=O)Nc2ccc(N(C)C)cc2)c2cc(F)cc(F)c2n1 | F
* Cc1csc(-c2nnc(Nc3ccc(Oc4ncccc4-c4ccnc(N)n4)cc3)c3ccccc23)c1 | F

Query: Which outcome was assigned to CCOC(=O)[C@@H](N)CCC(=O)N[C@@H](CSCc1ccccc1)C(=O)N[C@@H](C(=O)OCC)c1ccccc1 in this test?
Response: F

Query: Which outcome was assigned to CC(C)(C)c1[nH]cnc1C=c1[nH]c(=O)c(=Cc2ccccc2)[nH]c1=O in this test?
Response: T

Query: Which outcome was assigned to Cc1cnc(-c2cc(N3CCN(C(=O)CCS(C)(=O)=O)CC3)ncc2Cl)c(C)c1 in this test?
Response: F

Query: Which outcome was assigned to CCNC(=O)[C@H]1O[C@@H](n2cnc3c(N)nc(NCCc4ccc(CCC(=O)O)cc4)nc32)[C@H](O)[C@H]1O in this test?
Response: F

Query: Which outcome was assigned to COc1ccc2ccc(=O)oc2c1CC=C(C)C in this test?
Response: F

Query: Which outcome was assigned to COC(=O)N1CCN(Cc2cccc(NC(=O)Nc3ccc(C)nc3)c2F)CC1 in this test?
Response: F

Query: Which outcome was assigned to C=CC[N+]1([C@H]2C[C@H]3[C@@H]4CC[C@H]5C[C@H](O)[C@@H](N6CCOCC6)C[C@]5(C)[C@@H]4CC[C@]3(C)[C@H]2OC(C)=O)CCCC1 in this test?
Response: F

Query: Which outcome was assigned to CN(CC=CC#CC(C)(C)C)Cc1cccc2ccccc12 in this test?
Response: F

Query: Which outcome was assigned to O=C(O)c1nc(=O)[nH]c(=O)[nH]1 in this test?
Response: F

Query: Which outcome was assigned to Cc1ccccc1-n1c(Cn2nc(-c3cccc(O)c3)c3c(N)ncnc32)nc2cccc(C)c2c1=O in this test?
Response: T

Query: Which outcome was assigned to CC(C)n1c(C=C[C@H](O)C[C@H](O)CC(=O)O)c(-c2ccc(F)cc2)c2ccccc21 in this test?
Response: T

Query: Which outcome was assigned to CC(=O)N1CCN(c2ccc(OCc3nn(C)c(C)c3-c3cccc4c(CCCOc5cc(C)c(Cl)c(C)c5)c(C(=O)O)n(Cc5cccnc5)c34)cc2)CC1 in this test?
Response: F

Query: Which outcome was assigned to Cn1cnc(-c2cc3nccc(Oc4ccc(NC(=S)NC(=O)Cc5ccccc5)cc4F)c3s2)c1 in this test?
Response: T

Query: Which outcome was assigned to CN1[C@H]2CC[C@H]1CC(OC(=O)c1c[nH]c3ccccc13)C2 (some centres not stated) in this test?
Response: F

Query: Which outcome was assigned to CCNC(=O)Nc1ccc(Oc2ncnc(N)c2C=NOC)cc1Cl in this test?
Response: F

Query: Which outcome was assigned to O=C(NC[C@H](O)CO)c1ccncc1Nc1ccc(I)cc1F in this test?
Response: F

---

- System: NIH3T3
- Method notes: Cytotoxic Profiling of Annotated Libraries Using Quantitative High-Throughput Screening (AID 1296008); further: nearly all actives have a fitted effect of over 60% in size
- Condition info: Five cell lines viability, CellTiter-Glo ATP luminescence, 48-72 h
Inconclusive results are not listed. The source made the active and inactive calls. Calls come from the whole dose curve; as a rule, active = well fitted inhibition curve with a large enough effect; inconclusive = small, poorly fitted or top-dose-only effect; inactive = flat fitted curve, though single readings scatter.
Please reply with one of these outcomes: active, inactive

* CN1[C@H]2CC[C@H]1CC(OC(=O)c1c[nH]c3ccccc13)C2 (stereo partly specified) | inactive
* O=C(Nc1ncc(SCCN2CCCC2)s1)[C@]1(c2ccc(S(=O)(=O)C3CC3)cc2)C[C@@H]1C1CCCCC1 | active
* CC1=C[C@@H]2[C@@H]([C@@H](O)C[C@@]3(C)[C@H]2C[C@@H](C)[C@]3(O)C(=O)CO)[C@@]2(C)Cc3cnn(-c4ccccc4)c3C=C12 | active

Query: Which outcome was assigned to CN(C)CCN(C)C(=O)c1ccc(NC(=O)Nc2ccc(-c3nc(N4CCOCC4)c4ccn(CC(F)(F)F)c4n3)cc2)cc1 in this test?
Response: active

Query: Which outcome was assigned to CCNC(=O)[C@H]1O[C@@H](n2cnc3c(N)nc(NCCc4ccc(CCC(=O)O)cc4)nc32)[C@H](O)[C@H]1O in this test?
Response: inactive

Query: Which outcome was assigned to CN1C(=O)C[C@H](C(=O)N[C@@H](Cc2cnc[nH]2)C(=O)N2CCC[C@@H]2C(N)=O)NC1=O in this test?
Response: inactive

---

- Study system: Cytochrome P450 2D6 (Homo sapiens)
- Method notes: Cytochrome P450 family 2 subfamily D member 6 (CYP2D6) small molecule antagonists: luciferase biochemical (cell-free) qHTS assay (AID 1645840); further: nearly all actives have a fitted effect of over 55% in size; further: potency means the concentration at half of the fitted maximal effect
- Condition info: P450-Glo CYP2D6 enzyme, luciferin luminescence, 1 h; series mostly up to 57.4 µM
Records with an inconclusive call do not appear. Calls of active or inactive are those of the source. Calls come from the whole dose curve; as a rule, active = well fitted inhibition curve with a large enough effect in the repeat runs; inconclusive = weak or mixed curves; inactive = flat fitted curve, though single readings scatter.
Assay readout: Potency

Here's what some known entries look like.
* NC(=O)c1nnn(Cc2cc(Cl)c(C(=O)c3ccc(Cl)cc3)c(Cl)c2)c1N | 26.8 µM (active)
* OC[C@H]1O[C@@H](OCCc2ccc(O)cc2)[C@H](O)[C@@H](O)[C@H]1O | inactive
* CCNC(=O)Nc1ccc(Oc2ncnc(N)c2C=NOC)cc1Cl | inactive
* Cc1cccc2c1CC[C@H](CN1CCC(c3c(Cl)cccc3Cl)CC1)C[C@@H]2O | 2.13 µM (active)
* c1cc(OCCN2CCCCC2)cc(-c2n[nH]c3ccc(-c4ncn[nH]4)cc23)c1 | 15.1 µM (active)

Query: // query Potency value for entry C[C@@H](N)c1ccc(C(=O)Nc2ccnc3[nH]ccc23)cc1
Response: inactive

Query: // query Potency value for entry c1ccc(CNc2nc(N3CCOc4ccccc43)nc3c2CCCC3)cc1
Response: 3.01 µM (active)

Query: // query Potency value for entry CN(C)CCN(Cc1ccc(Cl)cc1)c1ccccn1
Response: 0.0692 µM (active)

Query: // query Potency value for entry CCc1cccc(CC)c1NC(=O)N1Cc2[nH]nc(NC(=O)c3ccc(N4CCN(C)CC4)cc3)c2C1
Response: inactive

Query: // query Potency value for entry O=c1[nH]nc(OCCCc2ccc(Cl)cc2)c(NCc2cccnc2)c1Br
Response: 10.7 µM (active)
